Would you mind telling me the reported TGI of each entry?
Tested on: RXF 393 renal
Assay details: NCI tumour cell line growth inhibition, 48 h

Molecule	Study target	Readout name	Recorded value
Cc1cccc2nc3c(=O)[nH]c(=O)nc-3n(C)c12	RXF 393 renal	TGI	> 100 µM
CC12CCCCC1=[N+]([O-])C(C)(C)N2O (centres undefined)	RXF 393 renal	TGI	> 100 µM
CC1(C)CC2(C)CC1CC2(O)c1ccccc1 (centres undefined)	RXF 393 renal	TGI	> 100 µM
O=S(=O)(c1ccc(-c2nnc(-c3ccc(F)cc3)o2)cc1)c1ccc(-c2nnc(-c3ccc(F)cc3)o2)cc1	RXF 393 renal	TGI	77.7 µM
O=[N+]([O-])c1ccc2oc(=Nc3ccccc3)c(Nc3ccccc3)nc2c1	RXF 393 renal	TGI	> 100 µM
N/C(=N\NS(=O)(=O)c1ccccc1)Oc1ccc(Br)cc1Br	RXF 393 renal	TGI	> 100 µM
CC(C)c1nc(N(C)S(C)(=O)=O)nc(-c2ccc(F)cc2)c1/C=C/[C@@H](O)C[C@@H](O)CC(=O)O	RXF 393 renal	TGI	> 100 µM
CCN1CCN(c2cc(C)nc(N(CCCNc3ccnc4cc(Cl)ccc34)Cc3ccc4c(c3)OCO4)n2)CC1	RXF 393 renal	TGI	3.38 µM

[ask] What TGI appears in the records for this molecule with RXF 393 renal? `CCCCCCCCCC(=O)N[C@@H](c1ccco1)[C@@H](O)C(=O)O[C@H]1C[C@@]2(O)[C@@H](OC(=O)c3ccccc3)[C@@H]3[C@]4(OC(C)=O)CO[C@@H]4C[C@H](O)[C@@]3(C)C(=O)[C@H](OC(C)=O)C(=C1C)C2(C)C`
[reply] 0.898 µM

Each recorded value in this set is attributed to PubChem BioAssay (NCI).
